- measurement.target: ScNbp2
- protocol.description: SPOT peptide array binding signal intensity (averaged, normalized) (arbitrary units (background-subtracted, floor 0; scale differs between SH3 domains)); higher = stronger binding of the SH3 domain to the peptide
measure.name: SPOT peptide array binding signal intensity

{"columns": ["binder", "qualifier.sign", "observed"],
 "data": [
  ["LYKRKPILLPDPKPL", "=", 14.5],
  ["VDFTLPPPPPPPGLD", "≤", 0],
  ["NPNRRAPRRPLSTQH", "=", 4200],
  ["TKPTPPPKPSHLKPK", "=", 13],
  ["NILKRRPLKLEAPSK", "=", 46],
  ["RRRRRPHRIERPLSN", "=", 437],
  ["ALRRRLPVTRSKINW", "=", 616]
]}
